Each entry below lists one item and its recorded Ki value.
target: CCR2 (Homo sapiens); construct: Membranes were prepared from THP-1 cells; endogenous in cells; test: CCR2 receptor membrane binding assay ([125I]MCP-1, THP-1 cell membranes, SPA beads); details: dissociation constant hKi; [125I]MCP-1 binding to THP-1 membranes

[
  {
    "MOLECULE": "Cc1c(NCC2CCC(C(F)(F)F)CC2)ncnc1C(=O)N1CCC(N2CCC(O)CC2)CC1 (stereo not shown) [Example 13]",
    "MEASURED_ON": "CCR2 (Homo sapiens)",
    "Ki": "1330 nM"
  },
  {
    "MOLECULE": "Cc1ccc(C2CCCC(CNc3ncnc(C(=O)N4CCC(N5CCC(N(C)S(C)(=O)=O)CC5)CC4)c3C)C2)cc1 (stereo not shown) [Example 159za]",
    "MEASURED_ON": "CCR2 (Homo sapiens)",
    "Ki": "6 nM"
  },
  {
    "MOLECULE": "Cc1c(NCC2Cc3ccccc32)ncnc1C(=O)N1CCC(N2CCC(N(C)S(C)(=O)=O)CC2)CC1 (stereo not shown) [Example 159nb]",
    "MEASURED_ON": "CCR2 (Homo sapiens)",
    "Ki": "88 nM"
  }
]

Query: Given the molecule CCS(=O)(=O)N(C)C1CCN(C2CCN(C(=O)c3ncnc(NC[C@H]4CCN(c5ccccc5)C4)c3C)CC2)CC1 [Example 41] , what is its reported Ki?
Reply: 11 nM

Query: Would you kindly share the measured Ki for Cc1c(NCC2CCCCC2)ncnc1C(=O)N1CCC(N2CCC(N(C)S(C)(=O)=O)CC2)CC1 [Example 159e] ?
Reply: 28 nM

Query: Name the reported Ki value associated with the molecule CO[C@H]1COCC[C@H]1NC1CCN(C(=O)c2ncnc(NC[C@H]3C[C@@H](c4ccccc4)C3)c2C)CC1 [Example 275dd]
Reply: 40 nM

Query: Please report the recorded Ki for COc1ccc(C2CCCC(CNc3ncnc(C(=O)N4CCC(N5CCC(N(C)S(C)(=O)=O)CC5)CC4)c3C)C2)cc1 (stereo not shown) [Example 159xa] .
Reply: 21 nM

----------
target: CCR2 (Homo sapiens, UniProt P41597); construct: Membranes were prepared from THP-1 cells; endogenous in cells; assay: CCR2 receptor membrane binding assay ([125I]MCP-1, THP-1 cell membranes, SPA beads); conditions: dissociation constant hKi; [125I]MCP-1 binding to THP-1 membranes
Sequence (P41597 1-360 isoform P41597-2): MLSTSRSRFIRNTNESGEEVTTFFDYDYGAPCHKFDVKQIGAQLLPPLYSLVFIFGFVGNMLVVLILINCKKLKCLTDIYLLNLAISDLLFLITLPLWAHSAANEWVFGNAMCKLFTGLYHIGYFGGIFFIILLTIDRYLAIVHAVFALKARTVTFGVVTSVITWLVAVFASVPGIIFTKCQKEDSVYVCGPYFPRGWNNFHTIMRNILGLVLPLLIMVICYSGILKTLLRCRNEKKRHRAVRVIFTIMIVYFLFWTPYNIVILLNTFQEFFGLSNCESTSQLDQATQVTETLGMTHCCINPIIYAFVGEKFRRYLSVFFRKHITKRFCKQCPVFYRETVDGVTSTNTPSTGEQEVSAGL
VALUE_TYPE: Ki (nM)
Report only the number, with the unit nM understood.

// known answers, use as guide
[
  {
    "SMI": "Cc1c(NCc2ccc(F)c(Cl)c2)ncnc1C(=O)N1CCC(N2CCC(N(C)S(C)(=O)=O)CC2)CC1",
    "Ki / nM": 98
  },
  {
    "SMI": "O=C(c1ncnc(NCc2cccc(-c3ccccc3)c2)c1Br)N1CCC(N2CCC(O)CC2)CC1",
    "Ki / nM": 1080
  },
  {
    "SMI": "Cc1c(NCc2ccc(C(F)(F)F)c(F)c2)ncnc1C(=O)N1CCC(N2CCC(O)CC2)CC1",
    "Ki / nM": 650
  }
]

Query: Reported Ki, molecule `Cc1c(NCCc2cccc(C(F)(F)F)c2)ncnc1C(=O)N1CCC(N2CCC(O)CC2)CC1` : ____
Reply: 1710

Query: Return reported Ki; argument: `Cc1c(NCc2cccc(Cl)c2)ncnc1C(=O)N1CCC(N2CCC(N(C)S(C)(=O)=O)CC2)CC1`
Reply: 138
